experiment: Toxicity in NOD/SCID mouse assessed as animal survival at 10 mg/kg, ip dosed 3 times per week and measured after 24 days of treatment; type: organism-based; details: in vivo, time 24 day
measurementLabel: survival at 576 h (%)
Answers are plain numbers, in %.

// query For the compound shown here, COC(=O)[C@@]12OC[C@]34[C@H]([C@@H](O)[C@@H]1O)[C@@]1(C)CC(=O)C(O)=C(C)[C@@H]1C[C@H]3OC(=O)[C@H](OC(=O)C=C(C)C)[C@@H]24 , give the reported survival at 576 h.
// result 25

Further cases:
// query For the compound shown here, COC(=O)[C@@]12OC[C@]34[C@H]([C@@H](O)[C@@H]1O)[C@@]1(C)CC(=O)C(OC(=O)CNC(=O)OC(C)(C)C)=C(C)[C@@H]1C[C@H]3OC(=O)[C@H](OC(=O)C=C(C)C)[C@@H]24 , give the reported survival at 576 h.
// result 0

----------
Please provide measured survival at 576 h for the entries that follow.
experiment: Toxicity in NOD/SCID mouse assessed as animal survival at 5 mg/kg, ip dosed 3 times per week and measured after 24 days of treatment; type: organism-based; details: in vivo, time 24 day
Numbers only, in %.

// known answers, use as guide
// query For the compound shown here, COC(=O)[C@@]12OC[C@]34[C@H]([C@@H](O)[C@@H]1O)[C@@]1(C)CC(=O)C(O)=C(C)[C@@H]1C[C@H]3OC(=O)[C@H](OC(=O)C=C(C)C)[C@@H]24 , give the reported survival at 576 h.
// result 75

// query For the compound shown here, COC(=O)[C@@]12OC[C@]34[C@H]([C@@H](O)[C@@H]1O)[C@@]1(C)CC(=O)C(OC(=O)C[C@H](C)N)=C(C)[C@@H]1C[C@H]3OC(=O)[C@H](OC(=O)C=C(C)C)[C@@H]24 , give the reported survival at 576 h.
// result 100

Further cases:
// query For the compound shown here, COC(=O)[C@@]12OC[C@]34[C@H]([C@@H](O)[C@@H]1O)[C@@]1(C)CC(=O)C(OC(=O)CNC(=O)OC(C)(C)C)=C(C)[C@@H]1C[C@H]3OC(=O)[C@H](OC(=O)C=C(C)C)[C@@H]24 , give the reported survival at 576 h.
// result 50

----------
molecular target: Phosphatidylinositol 4,5-bisphosphate 3-kinase catalytic subunit gamma isoform (Homo sapiens); test: Inhibition of PI3Kgamma in human LCL-1 cells assessed as inhibition of cell viability at 100 nM after 72 hrs by CellTiter-Glo luminescent assay; type: cell-based
The source made the active and inactive calls. The rule behind the calls is not given here.
Respond using exactly one of the listed classes: yes for active, no for inactive

Worked set:
// query Which outcome was entered for the compound COC(=O)[C@@]12OC[C@]34[C@H]([C@@H](O)[C@@H]1O)[C@@]1(C)CC(=O)C(OC(=O)C[C@@H](C)N)=C(C)[C@@H]1C[C@H]3OC(=O)[C@H](OC(=O)C=C(C)C)[C@@H]24 in this test?
// result yes

// query Which outcome was entered for the compound COC(=O)[C@@]12OC[C@]34[C@H]([C@@H](O)[C@@H]1O)[C@@]1(C)CC(=O)C(OCC(=O)NCCN)=C(C)[C@@H]1C[C@H]3OC(=O)[C@H](OC(=O)C=C(C)C)[C@@H]24 in this test?
// result yes

// query Which outcome was entered for the compound COC(=O)[C@@]12OC[C@]34[C@H]([C@@H](O)[C@@H]1O)[C@@]1(C)CC(=O)C(OC(=O)[C@@H](C)N)=C(C)[C@@H]1C[C@H]3OC(=O)[C@H](OC(=O)C=C(C)C)[C@@H]24 in this test?
// result yes

// query Which outcome was entered for the compound COC(=O)[C@@]12OC[C@]34[C@H]([C@@H](O)[C@@H]1O)[C@@]1(C)CC(=O)C(OC(=O)CNC(=O)CNC(=O)CN)=C(C)[C@@H]1C[C@H]3OC(=O)[C@H](OC(=O)C=C(C)C)[C@@H]24 in this test?
// result yes

Shifting focus to the compound that follows.
// query Which outcome was entered for the compound COC(=O)[C@@]12OC[C@]34[C@H]([C@@H](O)[C@@H]1O)[C@@]1(C)CC(=O)C(OC(=O)[C@H](C)NC(=O)[C@H](C)N)=C(C)[C@@H]1C[C@H]3OC(=O)[C@H](OC(=O)C=C(C)C)[C@@H]24 in this test?
// result no

----------
biological target: Phosphatidylinositol 4,5-bisphosphate 3-kinase catalytic subunit gamma isoform (Homo sapiens) (UniProt P48736); test: Inhibition of PI3Kgamma in human Raji cells assessed as inhibition of cell viability at 100 nM after 72 hrs by CellTiter-Glo luminescence assay; format: cell-based
Sequence (P48736 whole entry, looked up, canonical isoform): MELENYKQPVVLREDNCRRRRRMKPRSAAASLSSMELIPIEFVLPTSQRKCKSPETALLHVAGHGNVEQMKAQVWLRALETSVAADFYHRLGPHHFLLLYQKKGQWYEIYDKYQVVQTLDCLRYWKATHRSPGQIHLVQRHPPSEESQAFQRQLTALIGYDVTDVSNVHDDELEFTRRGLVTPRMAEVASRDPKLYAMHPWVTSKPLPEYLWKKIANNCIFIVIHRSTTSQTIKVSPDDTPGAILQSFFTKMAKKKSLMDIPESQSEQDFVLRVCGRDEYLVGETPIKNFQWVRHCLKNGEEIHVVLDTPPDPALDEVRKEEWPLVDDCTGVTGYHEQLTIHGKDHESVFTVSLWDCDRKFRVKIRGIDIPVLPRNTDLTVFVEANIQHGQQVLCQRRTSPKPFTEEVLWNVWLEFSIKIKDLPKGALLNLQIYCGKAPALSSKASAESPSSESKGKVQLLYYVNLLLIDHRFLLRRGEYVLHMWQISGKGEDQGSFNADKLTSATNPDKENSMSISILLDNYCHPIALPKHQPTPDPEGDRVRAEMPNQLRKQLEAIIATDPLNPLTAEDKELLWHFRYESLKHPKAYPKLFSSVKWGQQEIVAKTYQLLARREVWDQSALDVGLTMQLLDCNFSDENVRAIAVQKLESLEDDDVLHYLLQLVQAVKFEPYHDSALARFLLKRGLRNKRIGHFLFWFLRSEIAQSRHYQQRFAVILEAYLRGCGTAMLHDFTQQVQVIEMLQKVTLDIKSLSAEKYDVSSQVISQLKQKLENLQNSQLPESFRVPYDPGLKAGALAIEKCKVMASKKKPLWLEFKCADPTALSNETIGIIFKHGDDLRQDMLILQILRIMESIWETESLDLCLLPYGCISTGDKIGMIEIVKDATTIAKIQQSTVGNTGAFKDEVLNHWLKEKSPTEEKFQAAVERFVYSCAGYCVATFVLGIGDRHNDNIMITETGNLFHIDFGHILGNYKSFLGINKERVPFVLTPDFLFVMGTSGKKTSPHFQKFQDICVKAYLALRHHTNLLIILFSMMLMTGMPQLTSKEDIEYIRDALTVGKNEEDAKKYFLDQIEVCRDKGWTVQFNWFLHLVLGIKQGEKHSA
Activity calls are given as the source filed them. The calls are words filed in the database; no cut-off is given here.
Respond using exactly one of the listed classes: active, inactive

Worked set:
// query Which outcome was entered for the compound COC(=O)[C@@]12OC[C@]34[C@H]([C@@H](O)[C@@H]1O)[C@@]1(C)CC(=O)C(OC(=O)C[C@H](C)NC(=O)C[C@H](C)N)=C(C)[C@@H]1C[C@H]3OC(=O)[C@H](OC(=O)C=C(C)C)[C@@H]24 in this test?
// result active

// query Which outcome was entered for the compound COC(=O)[C@@]12OC[C@]34[C@H]([C@@H](O)[C@@H]1O)[C@@]1(C)CC(=O)C(OCC(=O)NCCC(=O)O)=C(C)[C@@H]1C[C@H]3OC(=O)[C@H](OC(=O)C=C(C)C)[C@@H]24 in this test?
// result inactive

// query Which outcome was entered for the compound COC(=O)[C@@]12OC[C@]34[C@H]([C@@H](O)[C@@H]1O)[C@@]1(C)CC(=O)C(OC(=O)C[C@H](C)NC(C)=O)=C(C)[C@@H]1C[C@H]3OC(=O)[C@H](OC(=O)C=C(C)C)[C@@H]24 in this test?
// result active

// query Which outcome was entered for the compound COC(=O)[C@@]12OC[C@]34[C@H]([C@@H](O)[C@@H]1O)[C@@]1(C)CC(=O)C(OC(=O)CNC(=O)CNC(=O)CN)=C(C)[C@@H]1C[C@H]3OC(=O)[C@H](OC(=O)C=C(C)C)[C@@H]24 in this test?
// result active

// query Which outcome was entered for the compound COC(=O)[C@@]12OC[C@]34[C@H]([C@@H](O)[C@@H]1O)[C@@]1(C)CC(=O)C(OC(=O)C[C@@H](N)C(C)C)=C(C)[C@@H]1C[C@H]3OC(=O)[C@H](OC(=O)C=C(C)C)[C@@H]24 in this test?
// result inactive

// query Which outcome was entered for the compound COC(=O)[C@@]12OC[C@]34[C@H]([C@@H](O)[C@@H]1O)[C@@]1(C)CC(=O)C(OC(=O)[C@H](C)NC(=O)[C@H](C)N)=C(C)[C@@H]1C[C@H]3OC(=O)[C@H](OC(=O)C=C(C)C)[C@@H]24 in this test?
// result inactive

// query Which outcome was entered for the compound COC(=O)[C@@]12OC[C@]34[C@H]([C@@H](O)[C@@H]1O)[C@@]1(C)CC(=O)C(OC(=O)C[C@@H](N)C(F)(F)F)=C(C)[C@@H]1C[C@H]3OC(=O)[C@H](OC(=O)C=C(C)C)[C@@H]24 in this test?
// result inactive

// query Which outcome was entered for the compound COC(=O)[C@@]12OC[C@]34[C@H]([C@@H](O)[C@@H]1O)[C@@]1(C)CC(=O)C(OC(=O)[C@H](C)NC(=O)OC(C)(C)C)=C(C)[C@@H]1C[C@H]3OC(=O)[C@H](OC(=O)C=C(C)C)[C@@H]24 in this test?
// result active

// query Which outcome was entered for the compound COC(=O)[C@@]12OC[C@]34[C@H]([C@@H](O)[C@@H]1O)[C@@]1(C)CC(=O)C(OC(=O)[C@H]5CCCN5)=C(C)[C@@H]1C[C@H]3OC(=O)[C@H](OC(=O)C=C(C)C)[C@@H]24 in this test?
// result active

Shifting focus to the compound that follows.
// query Which outcome was entered for the compound COC(=O)[C@@]12OC[C@]34[C@H]([C@@H](O)[C@@H]1O)[C@@]1(C)CC(=O)C(OC(=O)[C@@H](NC(=O)OC(C)(C)C)C(C)C)=C(C)[C@@H]1C[C@H]3OC(=O)[C@H](OC(=O)C=C(C)C)[C@@H]24 in this test?
// result inactive

----------
target: Phosphatidylinositol 4,5-bisphosphate 3-kinase catalytic subunit gamma isoform (Homo sapiens) (UniProt P48736); assay: Inhibition of PI3Kgamma in human RPMI-8226 cells assessed as inhibition of cell viability at 100 nM after 72 hrs by CellTiter-Glo luminescent assay; assay type: cell-based
The source made the active and inactive calls. The rule behind the calls is not given here.
Respond using exactly one of the listed classes: 1.0 (active), 0.0 (inactive)

Worked set:
// query Which outcome was entered for the molecule COC(=O)[C@@]12OC[C@]34[C@H]([C@@H](O)[C@@H]1O)[C@@]1(C)CC(=O)C(OC(=O)[C@H]5CCCN5)=C(C)[C@@H]1C[C@H]3OC(=O)[C@H](OC(=O)C=C(C)C)[C@@H]24 in this test?
// result 1.0

// query Which outcome was entered for the molecule COC(=O)[C@@]12OC[C@]34[C@H]([C@@H](O)[C@@H]1O)[C@@]1(C)CC(=O)C(OC(=O)[C@H](C)NC(=O)[C@H](C)N)=C(C)[C@@H]1C[C@H]3OC(=O)[C@H](OC(=O)C=C(C)C)[C@@H]24 in this test?
// result 0.0

// query Which outcome was entered for the molecule COC(=O)[C@@]12OC[C@]34[C@H]([C@@H](O)[C@@H]1O)[C@@]1(C)CC(=O)C(OC(=O)[C@@H](C)N)=C(C)[C@@H]1C[C@H]3OC(=O)[C@H](OC(=O)C=C(C)C)[C@@H]24 in this test?
// result 1.0

Further cases:
// query Which outcome was entered for the molecule COC(=O)[C@@]12OC[C@]34[C@H]([C@@H](O)[C@@H]1O)[C@@]1(C)CC(=O)C(OC(=O)C[C@H](C)NC(=O)C[C@H](C)N)=C(C)[C@@H]1C[C@H]3OC(=O)[C@H](OC(=O)C=C(C)C)[C@@H]24 in this test?
// result 1.0

// query Which outcome was entered for the molecule COC(=O)[C@@]12OC[C@]34[C@H]([C@@H](O)[C@@H]1O)[C@@]1(C)CC(=O)C(OC(=O)C[C@H](C)NC(C)=O)=C(C)[C@@H]1C[C@H]3OC(=O)[C@H](OC(=O)C=C(C)C)[C@@H]24 in this test?
// result 1.0

// query Which outcome was entered for the molecule COC(=O)[C@@]12OC[C@]34[C@H]([C@@H](O)[C@@H]1O)[C@@]1(C)CC(=O)C(OCC(=O)NCCN)=C(C)[C@@H]1C[C@H]3OC(=O)[C@H](OC(=O)C=C(C)C)[C@@H]24 in this test?
// result 1.0
